Assay explanation: soluble on expression in E. coli; label from the status in PepcDB or PDB records

Query sequence	soluble on expression in E. coli
GSHMSRILAVHASPRGERSQSRRLAEVFLAAYREAHPQARVARREVGRVPLPAVTEAFVAAAFHPQPEQRSLAMQADLALSDQLVGELFDSDLLVISTPMYNFSVPSGLKAWIDQIVRLGVTFDFVLDNGVAQYRPLLRGKRALIVTSRGGHGFGPGGENQAMNHADPWLRTALGFIGIDEVTVVAAEGEESGGRSFEDSCDEAEQRLLALARSA	soluble
MSLAQGANAPLNIPANPQMFGTNDPNVRRATAIVNGEIITGTDVEQRLALIVSANGGKIDGEEKERLRMQVLRNLIDETLQIQEAKAADVPADDGQVDASYERVATQNFGQSADALEKYLARIGSSAASLKRQIRGEIAWQNLLRRNVQPFVNVSEGEVQEAMQRLQASKGTEEYRIGEIFLAATEENKPQVFANAEKIVEQLKQGGSFVAYARQYSEASTAAVGGDLGWIRLAQLPTELATTAASMGPGQLAGPVEIRGGFSILYLIDKREGHHHHHH	soluble

* * *

Assay explanation: soluble on expression in E. coli; label from the status in PepcDB or PDB records
Result type: soluble on expression in E. coli

Reference set (6 entries):
Query sequence	soluble on expression in E. coli
KISKISTGIPRVDELLYGGFDGRDNIVVSGNNFSQKRSFIYNFIKSSANSGMKVIIINVDGSSESLLADLARRGTDLENIILLDGFSKNFQEKVPPNAEVIDDPSNVSSVLKQYMLRAQKEKDFIFVFLSATPYLMDFNDQNRKFFVQLVHWNRKNSLLSTYVLDDFVGQTTAEWFAYMMDFSLYFKNDGDYDYMRVLSLKPVRTKDW	soluble
MDFNLNDEQELFVAGIRELMASENWEAYFAECDRDSVYPERFVKALADMGIDSLLIPEEHGGLEAGFVTVAAVWMELGRLGAPTYVLYQLPGGFNTFLREGTQEQIDKIMAFRGTGKQMWNSAITEPGAGSDVGSLKTTYTRKNGKVYLNGSKCFITSSAYTPYIVVMARDGASPDKPVYTEWFVDMSKAGIKVNKLEKLGLRMDSCCEITFDDVELDEKDMFGREGNGFNRVKEEFDHERFLVALTNYGTAMCAFEDAARYANQRVQFGEAIGRFQLIQEKFAHMAIKLNSMKNMLLEAAWKADNGTITSGDAAMCKYFCANAAFEVVDTAMQVLGGVGIAGNHRITRFWRDLRVDRVSGGSDEMQILTLGRAVLKQYR	not soluble
MSLILESLVTTLDEQGRINLAPLGPIVLPPQSPGGLPQFLLRPYEGSTTCDNLLASGNAVIHVIDDALLIAKTAIGKVDASDLVVPIPGLEDTHVRLKRCHRWFAVRVTQRAGTPPRHELTARCLASGLVDPFFGFNRAKHAVIEAAVAATRLHLLPPEEIEEELERARIAIEKTGGEPEREALQLIRRHVRESSISEGHHHHHH	soluble
MKDTVKSLKQELQTITHWEHSQKDLWFWEKLGRLPFQVLDKLTPKVVHRKLGQLLDELGSYIQSGGQYLVNEGKVLDKLGVSSLAEVPHLPLETMDRVCDELIDARVTFAQLQGAATGIGGALTLAVDIPALLGLALKTLQEIAIVYGYDPKEKEERVFVVKCLQFAAADIVGKKAILDELSSFSNERGRVFSELQGWREVMMTFRDQYGWKKLFQAVPIIGVIFGSLFNKSFMEDIAETGKMLYRKRRIIEKLKQFEPGI	not soluble
DSLGNLVDGDQIIYIIAKDRHQRGVLHGGVVGTLMSNYGLELAITSLGVPFQRSKVGDRYVLETLREKDWKIGGETSGHIVCLDKTTTGDGIVAALQVLSIMVKQNKALHELTAGIQLL	not soluble
DVQLQESGPGLVKPSQSLSLTCTVTGYSITSLYAWNWIRQFPGNKLEWMGYINYSGYTSYNPSLKSRISITRDTSKNQFFLQLHSVTTEDTATYSCTRGVDYFAMDYWGQGASVTVSSAKTTAPSVYPLAPVCGDTTGSSVTLGCLVKGYFPEPVTLTWNSGSLSSGVHTFPALLQSDLYTLSSSVTVTSNTWPSQSITCNVAHPASSTKVDKKIVPRD	soluble

Reported soluble on expression in E. coli for GAADMPFRWSFMADGKSLIAAQPDDARVIADTEALAGWYGGMTSLAPKQIKLFADGAIYSQLMQVRDPFLDGHKGEWMMDLDQFQRAFRVYWDAGYQLHVHVNGDAGLDRVLDTLETNLRRTPRDDHRTTIVHFAVSGADQVLRIRDLGAIVSANPYYVAALADNYGEVGLGPDRADNMVRLGDVEAAGISWSLHSDMPMAPCDPLFLMWCAVNRVTSSGRVAGPAQRVSAETALRGVTINAAYSLKLEHEIGSIEPGKRANLTILGDNPLTVDPEKIRDIAVIGTVMEGRDFP was not soluble
